These data points were gathered from ChEMBL document CHEMBL4480391.

System: K562
procedure details: Cytotoxicity against human K562 cells after 72 hrs by MTT assay
Type: functional, cell-based
measurement setup: K562, 72 h
IC50 under 2000 nM gets met, anything at or over 2000 nM gets not met.

- compound: "CCCCCCC(c1cc(OC)c2c(c1OC)/C(=N/O)C=C/C2=N\\O)S(=O)(=O)CCC(C)C (stereo not given)"
  class: "not met"
- compound: "CCCCCCCC(SC(=O)c1cc(OC)c(OC)c(OC)c1)c1cc(OC)c2c(c1OC)/C(=N/O)C=C/C2=N\\O (stereo not given)"
  class: "met"

Input: Is it true that IC50 reported for CCCCCCCCCCCCCCC(SC(=O)c1cc(OC)c(OC)c(OC)c1)c1cc(OC)c2c(c1OC)/C(=N/O)C=C/C2=N\O (stereo not given) is less than 2000 nM?
Output: not met

Input: Quick check: IC50 of CC(C)=CC[C@@H](O)C1=CC(=O)c2c(O)ccc(O)c2C1=O under 2000 nM?
Output: met

Input: I wonder whether CCCCCCCCC(SC(=O)c1cc(OC)c(OC)c(OC)c1)c1cc(OC)c2c(c1OC)/C(=N/O)C=C/C2=N\O (stereo not given) has IC50 below 2000 nM. Can you tell?
Output: met

Input: In plain terms, does CCCCCCCCC(SC(=O)c1cccs1)c1cc(OC)c2c(c1OC)/C(=N/O)C=C/C2=N\O (stereo not given) come in under 2000 nM for IC50?
Output: met

Input: IC50 strictly < 2000 nM for this compound? CCCCCCCCCCSC(CCCCCCCCCC)c1cc(OC)c2c(c1OC)/C(=N/O)C=C/C2=N\O (stereo not given)
Output: not met

Input: Please determine if CCCCCCCCC(SCCCCCC)c1cc(OC)c2c(c1OC)/C(=N/O)C=C/C2=N\O (stereo not given) is below 2000 nM in terms of IC50.
Output: met

---

Tested on: MCF7
procedure details: Cytotoxicity against human MCF7 cells after 72 hrs by MTT assay
Type: functional, cell-based
measurement setup: MCF7, 72 h
Examples of compounds with documented pIC50 follow.
Here pIC50 is given on a logarithmic scale as minus log10 of the concentration in mol/L.

- compound: "O=c1[nH]cc(F)c(=O)[nH]1"
  measured property: "pIC50"
  obs value: 4.58
- compound: "COc1cccc2c1C(=O)c1c(O)c3c(c(O)c1C2=O)C[C@@](O)(C(=O)CO)C[C@@H]3O[C@H]1C[C@H](N)[C@H](O)[C@H](C)O1.Cl [DOXORUBICIN HYDROCHLORIDE]"
  measured property: "pIC50"
  obs value: 6.38
- compound: "CCCCCCCCC(SC(=O)c1ccc(OC)c(OC)c1)c1cc(OC)c2c(c1OC)/C(=N/O)C=C/C2=N\\O (centres undefined)"
  measured property: "pIC50"
  obs value: 4.88

Now turn to the next compound.
Input: Can you look up the measured pIC50 of CCCCCCCCC(SC(=O)c1ccc(C)cc1)c1cc(OC)c2c(c1OC)/C(=N/O)C=C/C2=N\O (centres undefined) for me?
Output: 4.72

---

# pIC50 annotations
Test system: A549/TR
procedure details: Cytotoxicity against human A549/TAX cells after 72 hrs by MTT assay
Assay type: functional, cell-based
The quantity pIC50 is defined as the negative base-10 logarithm of the molar concentration.

- compound: "CCCCCCCC(SCCC(C)C)c1cc(OC)c2c(c1OC)/C(=N/O)C=C/C2=N\\O (stereo unspecified)"
  obs value: 5.34
- compound: "CC(=O)O[C@H]1C(=O)[C@@]2(C)[C@H]([C@H](OC(=O)c3ccccc3)[C@]3(O)C[C@H](OC(=O)[C@H](O)[C@@H](NC(=O)c4ccccc4)c4ccccc4)C(C)=C1C3(C)C)[C@]1(OC(C)=O)CO[C@@H]1C[C@@H]2O"
  obs value: 4.61
- compound: "CCCCCCCCC(SC(=O)/C=C/c1ccccc1)c1cc(OC)c2c(c1OC)/C(=N/O)C=C/C2=N\\O (stereo unspecified)"
  obs value: 6.14
- compound: "CCCCCCCCCC(SC(=O)c1cc(OC)c(OC)c(OC)c1)c1cc(OC)c2c(c1OC)/C(=N/O)C=C/C2=N\\O (stereo unspecified)"
  obs value: 6.00
- compound: "CCCCCCCCC(SCCC(C)C)c1cc(OC)c2c(c1OC)/C(=N/O)C=C/C2=N\\O (stereo unspecified)"
  obs value: 5.93
- compound: "COc1cccc2c1C(=O)c1c(O)c3c(c(O)c1C2=O)C[C@@](O)(C(=O)CO)C[C@@H]3O[C@H]1C[C@H](N)[C@H](O)[C@H](C)O1.Cl [DOXORUBICIN HYDROCHLORIDE]"
  obs value: 4.37
- compound: "CCCCCCCCC(SC(=O)c1ccc(C)cc1)c1cc(OC)c2c(c1OC)/C(=N/O)C=C/C2=N\\O (stereo unspecified)"
  obs value: 5.74
- compound: "CCCCCCCCC(SC(=O)c1ccc(OC)c(OC)c1)c1cc(OC)c2c(c1OC)/C(=N/O)C=C/C2=N\\O (stereo unspecified)"
  obs value: 6.02

Input: I am curious: what pIC50 value has been reported for CCCCCCCC(SC(=O)c1cc(OC)c(OC)c(OC)c1)c1cc(OC)c2c(c1OC)/C(=N/O)C=C/C2=N\O (stereo unspecified) ?
Output: 5.65

Input: Consider the compound shown here: O=c1[nH]cc(F)c(=O)[nH]1 What is its recorded pIC50?
Output: 3.95

Input: Any idea what its pIC50 is? The compound is CCCCCCCCC(SC(=O)c1cc(OC)c(OC)c(OC)c1)c1cc(OC)c2c(c1OC)/C(=N/O)C=C/C2=N\O (stereo unspecified)
Output: 6.09

---

Tested on: K562
procedure details: Cytotoxicity against human K562 cells after 72 hrs by MTT assay
Type: functional, cell-based
measurement setup: K562, 72 h
IC50 overview
The reply should contain only the number, in nM.

Consider the following illustrative entries.
- compound: "CCC(SC(=O)c1cc(OC)c(OC)c(OC)c1)c1cc(OC)c2c(c1OC)/C(=N/O)C=C/C2=N\\O (stereo not given)"
  IC50 (nM): 14400
- compound: "CCCCCCCCCCCCCCC(c1cc(OC)c2c(c1OC)/C(=N/O)C=C/C2=N\\O)S(=O)(=O)CCC(C)C (stereo not given)"
  IC50 (nM): 1560
- compound: "CCC(SCCC(C)C)c1cc(OC)c2c(c1OC)/C(=N/O)C=C/C2=N\\O (stereo not given)"
  IC50 (nM): 3280
- compound: "CCCCCCCCC(SC(=O)c1ccc(C)cc1)c1cc(OC)c2c(c1OC)/C(=N/O)C=C/C2=N\\O (stereo not given)"
  IC50 (nM): 970

Consider now this further compound.
Input: Fill blank: measured IC50 of the compound CCCCCCCCC(SC(=O)/C=C/c1ccccc1)c1cc(OC)c2c(c1OC)/C(=N/O)C=C/C2=N\O (stereo not given) is ____.
Output: 460

---

Listed here are molecules together with their documented IC50.
System: MCF7
procedure details: Cytotoxicity against human MCF7 cells after 72 hrs by MTT assay
Type: functional, cell-based
measurement setup: MCF7, 72 h
Return type: number; implicit unit µM.

The cases that follow already have their IC50 on record.
- molecule: "CCCCCCCC(SC(=O)c1cc(OC)c(OC)c(OC)c1)c1cc(OC)c2c(c1OC)/C(=N/O)C=C/C2=N\\O (configuration not stated)"
  IC50, µM: 20.7
- molecule: "CCCCCCCCCC(SC(=O)c1cc(OC)c(OC)c(OC)c1)c1cc(OC)c2c(c1OC)/C(=N/O)C=C/C2=N\\O (configuration not stated)"
  IC50, µM: 19.3
- molecule: "CCCCCCCCC(SC(=O)c1cc(OC)c(OC)c(OC)c1)c1cc(OC)c2c(c1OC)/C(=N/O)C=C/C2=N\\O (configuration not stated)"
  IC50, µM: 14.8
- molecule: "CCCCCCCCC(SC(=O)/C=C/c1ccccc1)c1cc(OC)c2c(c1OC)/C(=N/O)C=C/C2=N\\O (configuration not stated)"
  IC50, µM: 11.1
- molecule: "CCCCCCCCC(SCCC(C)C)c1cc(OC)c2c(c1OC)/C(=N/O)C=C/C2=N\\O (configuration not stated)"
  IC50, µM: 33.6

Input: Suppose we examine the molecule CC(=O)O[C@H]1C(=O)[C@@]2(C)[C@H]([C@H](OC(=O)c3ccccc3)[C@]3(O)C[C@H](OC(=O)[C@H](O)[C@@H](NC(=O)c4ccccc4)c4ccccc4)C(C)=C1C3(C)C)[C@]1(OC(C)=O)CO[C@@H]1C[C@@H]2O ; what IC50 value has been reported?
Output: 0.47

Input: Recorded IC50 of CCCCCCCC(SCCC(C)C)c1cc(OC)c2c(c1OC)/C(=N/O)C=C/C2=N\O (configuration not stated) , please.
Output: 38.6
